assay_target: Orexin receptor type 2 (Homo sapiens, UniProt O43614)
Sequence (O43614 whole entry): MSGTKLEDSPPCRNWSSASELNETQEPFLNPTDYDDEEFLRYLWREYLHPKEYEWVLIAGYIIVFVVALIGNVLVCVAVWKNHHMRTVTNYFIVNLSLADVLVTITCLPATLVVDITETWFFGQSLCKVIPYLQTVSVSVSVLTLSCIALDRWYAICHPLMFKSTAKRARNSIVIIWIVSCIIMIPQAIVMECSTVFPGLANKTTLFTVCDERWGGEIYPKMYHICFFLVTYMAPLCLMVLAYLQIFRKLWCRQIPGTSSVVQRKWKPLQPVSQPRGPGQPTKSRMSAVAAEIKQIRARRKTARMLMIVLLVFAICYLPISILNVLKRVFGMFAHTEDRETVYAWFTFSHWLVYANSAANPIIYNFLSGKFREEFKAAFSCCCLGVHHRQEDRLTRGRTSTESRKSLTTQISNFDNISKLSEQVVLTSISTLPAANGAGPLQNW
experiment_notes: Antagonist activity at human OX2 receptor expressed in CHO cells assessed as inhibition of calcium mobilization by FLIPR assay
pIC50: −log10 of the molar value.
reported_metric: pIC50

| compound | pIC50 |
| --- | --- |
| CCn1nc(C)c2c1CCN([C@@H](C(=O)NC)c1ccccc1)[C@H]2CCc1ccc(C(F)(F)F)cc1 | 8.52 |

[A] CCn1nc(C)c2c1CCN(C(C(=O)NC)c1ccccc1)C2Cc1ccc(C(F)(F)F)cc1 (mixture of isomers)
[B] CCn1nc(C)c2c1CCN(C(C(=O)NC)c1ccccc1)C2CCc1ccc(C)cc1 (mixture of isomers)
Exercise: Identify the entry with the smaller pIC50: A or B . The response must carry the label of the picked entry.
Solution: A

###

assay_target: Orexin/Hypocretin receptor type 1 (Homo sapiens)
Sequence (O43613 whole entry): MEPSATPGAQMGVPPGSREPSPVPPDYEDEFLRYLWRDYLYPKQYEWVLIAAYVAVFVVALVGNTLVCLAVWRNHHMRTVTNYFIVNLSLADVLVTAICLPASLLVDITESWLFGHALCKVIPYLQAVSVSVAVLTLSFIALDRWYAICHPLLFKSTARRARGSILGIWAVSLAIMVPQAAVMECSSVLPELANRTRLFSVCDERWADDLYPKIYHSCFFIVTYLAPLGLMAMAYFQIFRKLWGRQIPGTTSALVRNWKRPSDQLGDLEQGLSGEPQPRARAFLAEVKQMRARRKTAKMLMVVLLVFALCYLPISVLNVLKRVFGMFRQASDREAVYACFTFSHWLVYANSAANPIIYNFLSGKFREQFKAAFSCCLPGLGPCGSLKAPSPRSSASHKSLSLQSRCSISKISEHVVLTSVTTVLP
experiment_notes: Antagonist activity at human OX1 receptor expressed in CHO cells assessed as inhibition of calcium mobilization by FLIPR assay
pIC50: −log10 of the molar value.
reported_metric: pIC50

| compound | pIC50 |
| --- | --- |
| CCn1nc(C)c2c1CCN(C(C(=O)NC)c1ccccc1)C2Cc1ccc(C(F)(F)F)cc1 (mixture of isomers) | 6.11 |

[I] CCn1nc(C)c2c1CCN(C(C(=O)NC)c1ccccc1)C2CCc1ccc(OC)cc1 (mixture of isomers)
[II] CCc1ccc(CC[C@H]2c3c(C)nn(CC)c3CCN2[C@@H](C(=O)NC)c2ccccc2)cc1
Exercise: When the recorded pIC50 values are compared, which is smaller: that of I or that of II ? # reply format: chosen label
Solution: I
